Values from patent US20230272056A1

Target: T1, human LAP-TGFB1 Fc fusion (human)
T1 construct: also called human LAP-TGFβ1-Fc; human LAP-TGFβ-Fc isoform 1
T1 sequence (chain, as listed by the source limits assumed): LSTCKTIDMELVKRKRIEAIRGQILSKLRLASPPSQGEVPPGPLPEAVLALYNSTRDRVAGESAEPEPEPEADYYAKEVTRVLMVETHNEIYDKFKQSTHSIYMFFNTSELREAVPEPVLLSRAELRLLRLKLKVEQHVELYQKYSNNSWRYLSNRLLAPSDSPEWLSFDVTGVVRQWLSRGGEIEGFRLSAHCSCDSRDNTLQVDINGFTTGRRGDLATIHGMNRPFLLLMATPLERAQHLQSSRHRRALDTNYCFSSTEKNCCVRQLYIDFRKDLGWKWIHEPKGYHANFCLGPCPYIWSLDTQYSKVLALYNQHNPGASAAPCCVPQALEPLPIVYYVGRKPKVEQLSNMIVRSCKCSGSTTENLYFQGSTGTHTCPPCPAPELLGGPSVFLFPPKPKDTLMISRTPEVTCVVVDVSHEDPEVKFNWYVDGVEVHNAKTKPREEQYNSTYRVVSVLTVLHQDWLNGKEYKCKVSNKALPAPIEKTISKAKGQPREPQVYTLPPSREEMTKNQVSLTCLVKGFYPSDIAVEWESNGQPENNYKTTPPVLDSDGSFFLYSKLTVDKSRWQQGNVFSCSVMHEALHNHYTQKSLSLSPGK
Assay: BLI off-rate screen
Experimental: The Fab mutants including a positive control, 20E6 Fab, and a negative control Fab (Molecular Innovations, catalog HU-FAB-4510) were diluted to 200 nM in assay buffer and loaded to FAB2G sensors for 180 seconds followed by a one-hour incubation at room temperature in assay buffer to equilibrate the tips. […]
measurement.type: Fold change (fold)
State the answer as a number, implicitly in fold.

>>> value("VH T28Y (67BIT) (Fab, V domains shown) VH: EVQLVQSGAEVKKPGASVKVSCKASGYYFTSYWMHWVRQAPGQGLEWMGRIDPQSGGIKYAQKFQGRATLTVDTSTSTAYMELSRLRSDDTAVYYCARWDYGGYFDVWGQGTLVTVSS VL: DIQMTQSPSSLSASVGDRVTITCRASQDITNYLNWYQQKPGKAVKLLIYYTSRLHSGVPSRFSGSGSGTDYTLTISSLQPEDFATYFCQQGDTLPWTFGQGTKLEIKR")
1.2

Next:
For VH F29Y (68BIT) (Fab, V domains shown) VH: EVQLVQSGAEVKKPGASVKVSCKASGYTYTSYWMHWVRQAPGQGLEWMGRIDPQSGGIKYAQKFQGRATLTVDTSTSTAYMELSRLRSDDTAVYYCARWDYGGYFDVWGQGTLVTVSS VL: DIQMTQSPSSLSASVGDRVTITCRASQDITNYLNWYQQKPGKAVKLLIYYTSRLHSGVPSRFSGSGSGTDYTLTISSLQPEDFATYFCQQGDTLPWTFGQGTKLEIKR the binder record lists Fold change as 1.3
